Where these numbers come from: paper PMC11879040

# System: Gamma-aminobutyric acid receptor subunit alpha-1 BZD site, GABRA1A (r)
# Assay type: binding, rat
Structures can show the parent of a compound that is named as a salt.
Readout Name: Specific binding (%)

{"columns": ["Molecule", "Numeric Value"],
 "data": [
  ["O=P1(N(CCCl)CCCl)NCCCO1 (stereo not drawn) [Cyclophosphamide]", 19.4],
  ["O=C1CN(N=Cc2ccc([N+](=O)[O-])o2)C(=O)N1 [Nitrofurantoin]", 7.2],
  ["NNc1nncc2ccccc12 [Hydralazine hydrochloride]", 11.7],
  ["Cn1cnc([N+](=O)[O-])c1Sc1ncnc2nc[nH]c12 [Azathioprine]", 17.2],
  ["CN(C)C(=N)N=C(N)N [Metformin, N,N-Dimethyltriimidodicarbonic diamide]", 0.6],
  ["O=S(=O)(O)NC1CCCCC1 [Cyclamate, Sodium cyclohexylsulfamate]", -8.6]
]}

* * *

# Assay Explanation: PBK model plasma Cmax estimate (Gastroplus 9.8; levels L1, L2, L3)
# Set-up: species or system human
# Condition Label: therapeutic uses
# underprediction of the L3 result at L2 (Cmax) per record follows
Readout Name: underprediction of the L3 result at L2 (Cmax)

{"columns": ["Compound", "Result"],
 "data": [
  ["C[C@H]1O[C@@H](O[C@H]2[C@@H](O)C[C@H](O[C@H]3[C@@H](O)C[C@H](O[C@H]4CC[C@@]5(C)[C@H](CC[C@@H]6[C@@H]5C[C@@H](O)[C@]5(C)[C@@H](C7=CC(=O)OC7)CC[C@]65O)C4)O[C@@H]3C)O[C@@H]2C)C[C@H](O)[C@@H]1O", "≥ 5 fold"],
  ["CC(=O)N1CCN(c2ccc(OC[C@H]3CO[C@](Cn4ccnc4)(c4ccc(Cl)cc4Cl)O3)cc2)CC1", "≥ 5 fold"],
  ["CC1(C)O[C@@H]2[C@@H](CO[C@@]3(COS(N)(=O)=O)OC(C)(C)O[C@@H]23)O1 [Topiramate]", "≥ 5 fold"],
  ["CC(=O)CC(c1ccccc1)c1c([O-])c2ccccc2oc1=O.[Na+] (stereo not shown)", "≥ 5 fold"]
]}

* * *

# System: HepG2 cells
# Assay Explanation: Cell stress panel (CSP), 24 h, 8 concentrations, BIFROST global PoD
# Assay type: cell-based
# Condition Label: HepG2; cell stress panel PoD
Counter-ions that a name gives are not always drawn. Peptide text beside a SMILES is read from it.
Readout Name: pod_cell_stress PoD (µM)

{"columns": ["Molecule", "Numeric Value"],
 "data": [
  ["NS(=O)(=O)c1cc(C(=O)O)c(NCc2ccco2)cc1Cl [Furosemide]", 2.832],
  ["COc1ccc(CCN(C)CCCC(C#N)(c2ccc(OC)c(OC)c2)C(C)C)cc1OC (centres unmarked) [Verapamil Hydrochloride]", 0.6383],
  ["CC(=O)CC(c1ccccc1)c1c([O-])c2ccccc2oc1=O.[Na+] (centres unmarked)", 13.7726],
  ["O=S(=O)(O)NC1CCCCC1 [Cyclamate, Sodium cyclohexylsulfamate]", 480.52],
  ["CC(=O)Nc1ccc(O)cc1 [Paracetamol, N-(4-Hydroxyphenyl)acetamide]", 40.132],
  ["CC(C)(CO)C(O)C(=O)NCCCO (centres unmarked)", 18298.9],
  ["COC(=O)[C@H](Cc1ccccc1)NC(=O)[C@@H](N)CC(=O)O [Aspartame] (H-Asp-Phe-OMe)", 536.875],
  ["N#CC(CCc1ccc(Cl)cc1)(Cn1cncn1)c1ccccc1 (centres unmarked)", 2.477]
]}

* * *

# System: Thyroid hormone receptor alpha, THRA (h)
# Assay Explanation: IPP THRA coactivator recruitment (agonist)
# Assay type: biochemical, human
# Condition Label: 10 uM; agonist; T3
Where a name gives a salt, the structure may show the parent alone.
Reported IPP screening %, Coactivator recruitment is given for each of the following compounds.

{"columns": ["Compound", "IPP screening %, Coactivator recruitment / %"],
 "data": [
  ["O=C(O)COCCN1CCN(C(c2ccccc2)c2ccc(Cl)cc2)CC1 (stereo not drawn) [Cetirizine dihydrochloride]", 2.0],
  ["CCCCOC(=O)c1ccc(O)cc1 [Butylparaben, Butyl 4-hydroxybenzoate]", 2.0],
  ["O=C1CN(N=Cc2ccc([N+](=O)[O-])o2)C(=O)N1", 0.0],
  ["CC(=O)N1CCN(c2ccc(OC[C@H]3CO[C@](Cn4ccnc4)(c4ccc(Cl)cc4Cl)O3)cc2)CC1", 1.0],
  ["O=[N+]([O-])c1cc(C(F)(F)F)c(Cl)c([N+](=O)[O-])c1Nc1ncc(C(F)(F)F)cc1Cl", 2.0],
  ["O=CCCCC=O", 3.0]
]}

* * *

# System: HepaRG cells
# Assay Explanation: High-throughput transcriptomics (HTTr, TempO-Seq), HepaRG, 24 h
# Type: cell-based, human
# Condition Label: HepaRG; HTTr BIFROST PoD
# Protocol: HepG2, HepaRG, and MCF7 cells were treated with each compound for 24 h across a dose range of 7 concentrations and lysed using TempO-Seq lysis buffer (BioSpyder Technologies, proprietary kit, see [Middleton et al. 2022] for method details). Sequencing was performed using TempO-Seq (BioClavis) version 2 of the human whole transcriptome panel and analyzed as described previously in Middleton et al.
Label TRUE when pod_httr_bifrost PoD is strictly below 0.8 µM; otherwise label FALSE.

{"columns": ["Compound", "Experimental Target", "Group Label"],
 "data": [
  ["C[C@H]1O[C@@H](O[C@H]2[C@@H](O)C[C@H](O[C@H]3[C@@H](O)C[C@H](O[C@H]4CC[C@@]5(C)[C@H](CC[C@@H]6[C@@H]5C[C@@H](O)[C@]5(C)[C@@H](C7=CC(=O)OC7)CC[C@]65O)C4)O[C@@H]3C)O[C@@H]2C)C[C@H](O)[C@@H]1O", "HepaRG cells", "TRUE"],
  ["CC(C)[C@H](N)C(=O)O", "HepaRG cells", "FALSE"],
  ["CC(C)(C)c1ccc(CCOc2ncnc3ccccc23)cc1", "HepaRG cells", "TRUE"],
  ["CCN(CC)CCNC(=O)c1cc(Cl)c(N)cc1OC [Metclopramide]", "HepaRG cells", "FALSE"],
  ["Cc1c(O)cccc1O", "HepaRG cells", "FALSE"],
  ["CCOc1cc(CCC(C)=O)ccc1O [Ethylzingerone, 4-(3-Ethoxy-4-hydroxyphenyl)butan-2-one]", "HepaRG cells", "FALSE"],
  ["CCOC(=O)c1ccc(N)cc1 [Benzocaine, Ethyl 4-aminobenzoate]", "HepaRG cells", "FALSE"],
  ["Cn1cnc([N+](=O)[O-])c1Sc1ncnc2nc[nH]c12", "HepaRG cells", "FALSE"]
]}

* * *

# Tested on: Potassium Voltage-Gated Channel Kv non-selective, KCNQ1 (r)
# Assay Explanation: IPP KCNQ1 binding (antagonist radioligand)
# Set-up: species or system rat
# Condition Label: IPP screening at 10 uM; control α-dendrotoxin
Readings of Specific binding for the listed compounds
Readout Name: Specific binding (%)

{"columns": ["Compound", "Experimental Target", "Readout Name", "Numeric Value"],
 "data": [
  ["CC(C)(C)c1ccc(CCOc2ncnc3ccccc23)cc1 [Fenazaquin]", "Potassium Voltage-Gated Channel Kv non-selective, KCNQ1 (r)", "Specific binding", -1.6],
  ["CCCCOC(=O)c1ccc(O)cc1 [Butylparaben, Butyl 4-hydroxybenzoate]", "Potassium Voltage-Gated Channel Kv non-selective, KCNQ1 (r)", "Specific binding", 1.5],
  ["Cn1cnc([N+](=O)[O-])c1Sc1ncnc2nc[nH]c12 [Azathioprine]", "Potassium Voltage-Gated Channel Kv non-selective, KCNQ1 (r)", "Specific binding", 1.0],
  ["O=[N+]([O-])c1cc(C(F)(F)F)c(Cl)c([N+](=O)[O-])c1Nc1ncc(C(F)(F)F)cc1Cl [Fluazinam]", "Potassium Voltage-Gated Channel Kv non-selective, KCNQ1 (r)", "Specific binding", -3.7],
  ["N#CC(CCc1ccc(Cl)cc1)(Cn1cncn1)c1ccccc1 (centres unmarked) [Fenbuconazole]", "Potassium Voltage-Gated Channel Kv non-selective, KCNQ1 (r)", "Specific binding", 3.0]
]}

* * *

# Assay Explanation: physchem

{"columns": ["Query Smiles", "logP"],
 "data": [
  ["CC(C)[C@H](N)C(=O)O", -2.21]
]}

* * *

# System: Thyroid hormone receptor alpha, THRA (h)
# Assay Explanation: IPP THRA coactivator recruitment (agonist)
# Format: biochemical, human
# Condition Label: 100 uM; agonist; T3; * denotes assay interference (2-Amino-6-chloro-4-nitrophenol, HC Red 3)
Peptide text beside a SMILES is read from it.

{"columns": ["Molecule", "Experimental Target", "IPP screening %, Coactivator recruitment"],
 "data": [
  ["CC(=O)Nc1ccc(O)cc1 [Paracetamol, N-(4-Hydroxyphenyl)acetamide]", "Thyroid hormone receptor alpha, THRA (h)", "1.0%"],
  ["CCN(CC)CCNC(=O)c1cc(Cl)c(N)cc1OC [Metoclopramide]", "Thyroid hormone receptor alpha, THRA (h)", "1.0%"],
  ["CC(=O)CC(c1ccccc1)c1c([O-])c2ccccc2oc1=O.[Na+] (stereo not drawn) [Warfarin]", "Thyroid hormone receptor alpha, THRA (h)", "-2.0%"],
  ["CC1(C)O[C@@H]2[C@@H](CO[C@@]3(COS(N)(=O)=O)OC(C)(C)O[C@@H]23)O1 [Topiramate]", "Thyroid hormone receptor alpha, THRA (h)", "0.0%"],
  ["CC(C)Cc1ccc(C(C)C(=O)O)cc1 (stereo not drawn) [Ibuprofen]", "Thyroid hormone receptor alpha, THRA (h)", "1.0%"],
  ["NS(=O)(=O)c1cc(C(=O)O)c(NCc2ccco2)cc1Cl [Furosemide]", "Thyroid hormone receptor alpha, THRA (h)", "-1.0%"],
  ["Nc1cc([N+](=O)[O-])cc(Cl)c1O [2-Amino-6-chloro-4-nitrophenol]", "Thyroid hormone receptor alpha, THRA (h)", "41.0* %"],
  ["O=S(=O)(O)NC1CCCCC1 [Cyclamate, Sodium cyclohexylsulfamate]", "Thyroid hormone receptor alpha, THRA (h)", "2.0%"],
  ["COC(=O)[C@H](Cc1ccccc1)NC(=O)[C@@H](N)CC(=O)O [Aspartame] (H-Asp-Phe-OMe)", "Thyroid hormone receptor alpha, THRA (h)", "2.0%"]
]}
